Molecular target: extracellular domain of human GPVI (human) (UniProt Q9HCN6)
Test: SPR (Biacore 3000), human GPVI immobilised by amine coupling, Fab as analyte
recorded endpoint: Kd (nM)
One number for each entry, in nM.

Prompt line: Given the binder humanized anti-GPVI Fab VL3/VH2 (Fab, V domains shown) VH: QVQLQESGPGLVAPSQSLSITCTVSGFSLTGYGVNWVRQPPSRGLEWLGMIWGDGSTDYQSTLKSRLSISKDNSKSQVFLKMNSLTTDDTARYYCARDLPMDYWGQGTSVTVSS VL: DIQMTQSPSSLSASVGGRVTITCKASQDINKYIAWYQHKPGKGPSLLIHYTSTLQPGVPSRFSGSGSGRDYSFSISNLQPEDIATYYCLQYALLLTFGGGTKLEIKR , what is its reported Kd?
Response line: 0.2
